- EXPERIMENTAL_SYSTEM: BRM (Homo sapiens, UniProt P51531)
- Sequence (P51531 whole entry): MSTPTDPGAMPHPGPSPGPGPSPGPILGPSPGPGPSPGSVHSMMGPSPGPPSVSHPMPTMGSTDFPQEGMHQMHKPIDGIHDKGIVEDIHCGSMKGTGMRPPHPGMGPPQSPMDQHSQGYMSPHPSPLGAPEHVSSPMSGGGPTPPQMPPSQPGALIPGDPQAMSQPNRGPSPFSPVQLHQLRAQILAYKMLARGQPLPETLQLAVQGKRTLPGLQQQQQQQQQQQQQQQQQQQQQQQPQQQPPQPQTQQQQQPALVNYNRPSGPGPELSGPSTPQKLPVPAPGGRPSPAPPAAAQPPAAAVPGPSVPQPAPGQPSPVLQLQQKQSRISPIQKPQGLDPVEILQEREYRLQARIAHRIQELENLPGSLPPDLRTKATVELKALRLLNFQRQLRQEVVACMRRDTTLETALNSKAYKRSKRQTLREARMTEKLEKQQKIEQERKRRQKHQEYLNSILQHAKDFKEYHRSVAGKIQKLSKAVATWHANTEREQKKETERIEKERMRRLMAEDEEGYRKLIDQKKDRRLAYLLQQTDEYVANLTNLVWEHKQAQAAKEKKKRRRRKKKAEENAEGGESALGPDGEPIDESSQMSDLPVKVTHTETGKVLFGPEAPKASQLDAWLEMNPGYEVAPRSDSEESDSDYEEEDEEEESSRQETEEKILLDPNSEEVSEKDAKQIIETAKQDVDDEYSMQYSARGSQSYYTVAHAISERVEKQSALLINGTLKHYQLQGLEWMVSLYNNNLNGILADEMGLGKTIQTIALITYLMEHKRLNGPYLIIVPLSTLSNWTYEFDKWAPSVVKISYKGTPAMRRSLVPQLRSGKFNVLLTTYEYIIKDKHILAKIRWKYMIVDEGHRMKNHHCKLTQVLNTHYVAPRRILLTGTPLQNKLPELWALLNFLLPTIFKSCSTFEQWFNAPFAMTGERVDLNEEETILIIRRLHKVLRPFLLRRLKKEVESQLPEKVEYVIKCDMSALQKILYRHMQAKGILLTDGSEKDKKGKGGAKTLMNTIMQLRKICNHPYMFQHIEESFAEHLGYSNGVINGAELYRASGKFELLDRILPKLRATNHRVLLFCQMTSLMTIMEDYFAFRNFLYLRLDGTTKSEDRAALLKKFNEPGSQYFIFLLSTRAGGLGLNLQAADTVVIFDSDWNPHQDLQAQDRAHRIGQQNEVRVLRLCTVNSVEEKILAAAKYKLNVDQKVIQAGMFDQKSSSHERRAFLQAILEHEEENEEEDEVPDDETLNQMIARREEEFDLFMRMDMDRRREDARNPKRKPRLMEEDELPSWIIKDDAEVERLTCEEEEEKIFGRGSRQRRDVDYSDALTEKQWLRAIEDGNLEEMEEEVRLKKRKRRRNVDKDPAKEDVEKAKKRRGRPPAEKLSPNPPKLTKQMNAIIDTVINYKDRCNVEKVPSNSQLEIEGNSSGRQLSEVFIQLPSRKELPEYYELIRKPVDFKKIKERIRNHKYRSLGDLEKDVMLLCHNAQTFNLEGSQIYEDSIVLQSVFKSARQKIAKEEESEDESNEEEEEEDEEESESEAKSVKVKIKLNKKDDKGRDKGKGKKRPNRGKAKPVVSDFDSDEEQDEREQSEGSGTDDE
OBSERVED_PROPERTY: IC50
Could you kindly put the unit after your number?

In: State IC50 on BRM (Homo sapiens, UniProt P51531). Entry: COCc1cnc2c(c1)OCCN2c1ccc2cnc(CNC(=O)c3cc(F)c4c(c3)S(=O)(=O)[C@@H](F)CCO4)cc2n1 [Compound 224]
Out: 7.1 nM

---

- EXPERIMENTAL_SYSTEM: BRG-1 (Homo sapiens)
API: label(entry) gives True if the entry's IC50 is strictly smaller than 0.1 µM; on equality or larger values it gives False.

In: Input `Cc1cc(C(=O)NCc2cc3nc(N4CCOc5ccc(C(F)F)nc54)ccc3cn2)cc2c1COC[C@H](F)S2(=O)=O` ; condition: IC50 strictly below 0.1 µM. Does it hold?
Out: False

In: Input `O=C(NCc1cc2nc(N3CCOc4cc(N5CCC(F)CC5)cnc43)ccc2cn1)c1cc(F)c2c(c1)S(=O)(=O)[C@@H](F)CCO2` ; condition: IC50 strictly below 0.1 µM. Does it hold?
Out: True

---

- System: BRM-dependent transcription (BRG1 mutant lung cancer cell line A549)
- PROTOCOL_NOTES: BRM-dependent transcription, MMTV luciferase reporter in BRG1 mutant A549 cells
- Assay type: cell-based
- SETUP_CONDITIONS: MMTV luciferase reporter cell lines, selectivity BRG1/BRM, Table 11
Catalogue of Ratio (MDA-MMTV IC50 (μM) divided by A549-MMTV IC50 (μM)) readings, one per entry.

>>> df
                                   compound  reading
0  [2H]C1([2H])Oc2c(Cl)cc(C(=O)NCc3cc4nc(-c5cccc(OC(F)F)n5)ccc4cn3)cc2S(=O)(=O)[C@@H](F)C1([2H])[2H]    52.60

In: Return Ratio (MDA-MMTV IC50 (μM) divided by A549-MMTV IC50 (μM)) for the following compound: `[2H]C1([2H])OC([2H])([2H])[C@H](F)S(=O)(=O)c2cc(C(=O)NCc3cc4nc(-c5cccc(OC(F)F)n5)ccc4cn3)cc(F)c21`
Out: 22.55

In: Return Ratio (MDA-MMTV IC50 (μM) divided by A549-MMTV IC50 (μM)) for the following compound: `O=C(NCc1cc2nc(-c3ccc([C@H](F)C(F)F)c(C4CC4)n3)ccc2cn1)c1cc(C(F)F)c2c(c1)S(=O)(=O)[C@@H](F)COC2`
Out: 26.59

In: Return Ratio (MDA-MMTV IC50 (μM) divided by A549-MMTV IC50 (μM)) for the following compound: `Cc1cc(C(=O)NCc2cc3nc(-c4ccc(OC(F)F)c(C5CC5)n4)ccc3cn2)cc2c1COC[C@H](F)S2(=O)=O`
Out: 27.54

In: Return Ratio (MDA-MMTV IC50 (μM) divided by A549-MMTV IC50 (μM)) for the following compound: `CC(C)c1ccc(-c2ccc3cnc(CNC(=O)c4cc(F)c5c(c4)S(=O)(=O)[C@@H](F)CCO5)cc3n2)nc1C1CC1`
Out: 25.74

---

Catalogue of IC50 readings, one per entry.
- EXPERIMENTAL_SYSTEM: BRG-1 (Homo sapiens, UniProt P51532)
- Sequence (P51532 whole entry): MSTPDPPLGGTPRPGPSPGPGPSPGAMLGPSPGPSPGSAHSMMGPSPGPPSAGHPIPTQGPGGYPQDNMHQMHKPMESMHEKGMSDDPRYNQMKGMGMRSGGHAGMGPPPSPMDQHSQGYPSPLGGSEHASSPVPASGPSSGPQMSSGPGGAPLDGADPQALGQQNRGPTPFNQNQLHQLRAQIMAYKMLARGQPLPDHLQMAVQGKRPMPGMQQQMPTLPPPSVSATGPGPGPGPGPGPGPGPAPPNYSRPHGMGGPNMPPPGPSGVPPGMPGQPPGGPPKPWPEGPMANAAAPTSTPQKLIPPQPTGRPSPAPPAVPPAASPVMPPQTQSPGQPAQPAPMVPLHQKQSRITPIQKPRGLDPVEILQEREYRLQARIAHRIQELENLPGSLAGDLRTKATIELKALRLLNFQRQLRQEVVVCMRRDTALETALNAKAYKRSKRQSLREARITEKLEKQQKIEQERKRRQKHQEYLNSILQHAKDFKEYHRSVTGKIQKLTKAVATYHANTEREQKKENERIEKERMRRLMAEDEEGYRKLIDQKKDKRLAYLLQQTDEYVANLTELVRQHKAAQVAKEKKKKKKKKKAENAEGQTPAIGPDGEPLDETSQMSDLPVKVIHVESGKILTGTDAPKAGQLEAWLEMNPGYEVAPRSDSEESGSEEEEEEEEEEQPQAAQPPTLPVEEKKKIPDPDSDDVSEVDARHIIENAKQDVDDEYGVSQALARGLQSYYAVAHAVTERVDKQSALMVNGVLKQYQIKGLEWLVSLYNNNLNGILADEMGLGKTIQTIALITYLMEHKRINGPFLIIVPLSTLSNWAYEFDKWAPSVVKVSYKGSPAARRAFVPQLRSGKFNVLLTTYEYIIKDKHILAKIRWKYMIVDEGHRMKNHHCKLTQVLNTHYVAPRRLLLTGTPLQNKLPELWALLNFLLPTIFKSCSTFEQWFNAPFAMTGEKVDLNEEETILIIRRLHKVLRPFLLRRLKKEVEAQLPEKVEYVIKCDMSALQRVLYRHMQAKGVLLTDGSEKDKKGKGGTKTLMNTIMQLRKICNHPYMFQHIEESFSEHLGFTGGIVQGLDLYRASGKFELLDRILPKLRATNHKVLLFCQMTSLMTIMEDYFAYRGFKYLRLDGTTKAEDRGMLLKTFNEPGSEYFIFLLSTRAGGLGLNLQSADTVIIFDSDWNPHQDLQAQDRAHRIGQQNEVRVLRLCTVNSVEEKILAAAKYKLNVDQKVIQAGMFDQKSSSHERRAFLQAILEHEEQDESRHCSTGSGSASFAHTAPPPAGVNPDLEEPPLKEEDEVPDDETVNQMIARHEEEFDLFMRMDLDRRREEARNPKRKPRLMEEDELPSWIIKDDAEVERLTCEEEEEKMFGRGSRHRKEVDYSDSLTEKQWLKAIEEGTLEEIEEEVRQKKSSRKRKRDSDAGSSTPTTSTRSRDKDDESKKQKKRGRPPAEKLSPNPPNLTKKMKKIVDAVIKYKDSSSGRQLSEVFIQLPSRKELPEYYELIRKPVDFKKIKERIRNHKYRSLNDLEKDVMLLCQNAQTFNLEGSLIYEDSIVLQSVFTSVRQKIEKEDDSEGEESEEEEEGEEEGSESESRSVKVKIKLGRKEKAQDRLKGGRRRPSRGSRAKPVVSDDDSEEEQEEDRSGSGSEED
Answer in nM, number only, no unit symbol.

In [3]: df
Out[3]:
                                   compound  reading
0  O=C(NCc1cc2nc(-c3cncc(C4CC4)n3)ccc2cn1)c1cc(F)c2c(c1)S(=O)(=O)[C@@H](F)COC2 [Compound 238]      132

In: State IC50 on BRG-1 (Homo sapiens, UniProt P51532). Entry: O=C(NCc1cc2nc(-c3ccc(OC(F)F)c(C4CC4)n3)ccc2cn1)c1cc(F)c2c(c1)S(=O)(=O)[C@@H](F)COC2 [Compound 85]
Out: 69.9

In: State IC50 on BRG-1 (Homo sapiens, UniProt P51532). Entry: [2H]C1([2H])OC([2H])([2H])[C@H](F)S(=O)(=O)c2cc(C(=O)NCc3cc4nc(-c5ccc(C(F)F)nc5OC)ccc4cn3)cc(F)c21 [Compound 23]
Out: 37.9
